System: HCC-2998 colon
METHOD_SUMMARY: NCI-60 one-dose screen, 48 h
DETAILS: 10 µM unless noted
Method: Growth inhibition of the HCC-2998 human tumor cell line is measured as a screen for anti-cancer activity. Cells are grown in 96 well plates and exposed to the test compound for 48 hours. Compounds are tested at a single concentration, which is 10^-5 M for most compounds. The reported endpoint is percent growth (GI% or GIPRCNT), where numbers from 0 - 100% represent growth inhibition, and numbers from -100% - 0 represent cell death. For example, a value of 40 represents 60% growth inhibition. […]
This is part of a sample that, as a whole, favours compounds with a hit. Of some 83,000 tested, about 20% had one in any assay. Activity calls are given as the source filed them. The calls were made as follows: active = growth percent below 10; inactive = the rest.
Answer with one of the outcomes given here: TRUE = active, FALSE = inactive

These solved cases illustrate the format of a correct answer.
[[record]]
compound = "COc1ccc2[nH]cc(C(c3ccc(Cl)cc3)N3CCCC3)c2c1 (stereo not drawn)"
label_class = "FALSE"

[[record]]
compound = "C#CC[C@@H]1C[C@]2(C)[C@H]3CC=C4[C@H]5[C@@H](C)[C@H](C)CC[C@]5(C(=O)NCCCN5CCN(CCCN)CC5)CC[C@@]4(C)[C@]3(C)CC[C@H]2C(C)(C)[C@H]1OC(C)=O"
label_class = "TRUE"

[[record]]
compound = "Nc1nc(N)c2c(n1)NC(c1sc(Cl)nc1Cl)CC(c1ccc3c(c1)OCO3)=N2 (stereo not drawn)"
label_class = "FALSE"

[[record]]
compound = "CCCCN(CCCC)CCCN=c1nc2c(c(N)n1-c1ccccc1)c(=S)n(-c1ccccc1)c(=S)n2-c1ccccc1"
label_class = "TRUE"

[[record]]
compound = "Oc1[nH]c2ccc(Cl)cc2c1/C=c1/ccc2c(c1)N=C(c1ccc(F)cc1)N=2"
label_class = "FALSE"

[[record]]
compound = "CCCc1n(Cc2ccc3ccccc3n2)cc[n+]1Cc1ccc2ccccc2c1"
label_class = "FALSE"

[[record]]
compound = "O=C(NCCNC(=O)c1cc(S(=O)(=O)NCCc2ccccc2)c(O)c(O)c1O)c1cc(S(=O)(=O)NCCc2ccccc2)c(O)c(O)c1O"
label_class = "FALSE"


Please find the next compound below.
**Q:** Would you mind telling me which call this test gave Oc1c(C(c2ccc(F)cc2)N2CCCCC2)ccc2cncnc12 (stereo not drawn) ?
**A:** FALSE

---

System: UO-31 renal
METHOD_SUMMARY: NCI-60 one-dose screen, 48 h
DETAILS: 10 µM unless noted
The panel holds about 83,000 compounds, 20% with a hit somewhere; the sample as a whole holds those more often. Active and inactive are the calls of the source. How the source made its calls: active means growth percent below 10; inactive means the rest.
Answer with one of the outcomes given here: t for active, f for inactive

These solved cases illustrate the format of a correct answer.
[[record]]
molecule = "CCN(CC)c1ccc(C(=N)c2ccc(N(C)C)cc2)cc1"
label_class = "t"

[[record]]
molecule = "O=C(CCCCCCc1nc2ccc(Br)cc2[nH]1)NO"
label_class = "t"

[[record]]
molecule = "CCCCn1c(C)nc2cc(Nc3nc(Cl)nc4nc[nH]c34)ccc21"
label_class = "f"

[[record]]
molecule = "c1ccc2c(c1)cnc1ccccc12"
label_class = "f"


**Q:** Would you mind telling me which call this test gave C#CC[C@@H]1C[C@]2(C)[C@H]3CC=C4[C@H]5[C@@H](C)[C@H](C)CC[C@]5(C(=O)NCCCN5CCN(CCCN)CC5)CC[C@@]4(C)[C@]3(C)CC[C@H]2C(C)(C)[C@H]1OC(C)=O ?
**A:** t

**Q:** Would you mind telling me which call this test gave O=C(O)c1ccccc1N=Cc1ccccc1 ?
**A:** f

**Q:** Would you mind telling me which call this test gave CCOc1cccc(/C=N/NC(=O)Cc2ccc(Nc3ccnc(C(F)(F)F)c3)cc2)c1O ?
**A:** t

**Q:** Would you mind telling me which call this test gave CCCCCCCCCCCCCC(=S)NCCCC[C@H](NC(=O)OCc1ccccc1)C(=O)Nc1ccccc1 ?
**A:** f

**Q:** Would you mind telling me which call this test gave CN(C)CCOc1nc2c3ccncc3cc(-c3cccc(Cl)c3)c2c2cnccc12 ?
**A:** f

**Q:** Would you mind telling me which call this test gave CCC1CCc2nc3sc(C(=O)Nc4cccc(F)c4)c(N)c3cc2C1 (stereo not given) ?
**A:** f
